Reference source: paper PMC9199881

Assay: Plasma pharmacokinetics, Part A
Format: in vivo, human
Details: human, plasma, oral, Tmax, Median (range), rilzabrutinib 100 mg + ritonavir 100 mg b.i.d., rilzabrutinib in plasma
measured-attribute: Tmax (h)
One number for each entry, in h.

Problem: Output Tmax of "CC(C)(/C=C(\C#N)C(=O)N1CCC[C@@H](n2nc(-c3ccc(Oc4ccccc4)cc3F)c3c(N)ncnc32)C1)N1CCN(C2COC2)CC1"
Solution: 2.5

----------
Experiment: Plasma pharmacokinetics, Part A
Format: in vivo, human
Conditions: human, plasma, oral, AUC0–last, Mean (SD), rilzabrutinib 100 mg + ritonavir 100 mg b.i.d., rilzabrutinib in plasma
measured-attribute: AUC(0-t) (ng·h/mL)
One number for each entry, in ng·h/mL.

Problem: Output AUC(0-t) of "CC(C)(/C=C(\C#N)C(=O)N1CCC[C@@H](n2nc(-c3ccc(Oc4ccccc4)cc3F)c3c(N)ncnc32)C1)N1CCN(C2COC2)CC1"
Solution: 1080
